test_system: PSMA (Homo sapiens (Human))
Sequence (Q04609 whole entry): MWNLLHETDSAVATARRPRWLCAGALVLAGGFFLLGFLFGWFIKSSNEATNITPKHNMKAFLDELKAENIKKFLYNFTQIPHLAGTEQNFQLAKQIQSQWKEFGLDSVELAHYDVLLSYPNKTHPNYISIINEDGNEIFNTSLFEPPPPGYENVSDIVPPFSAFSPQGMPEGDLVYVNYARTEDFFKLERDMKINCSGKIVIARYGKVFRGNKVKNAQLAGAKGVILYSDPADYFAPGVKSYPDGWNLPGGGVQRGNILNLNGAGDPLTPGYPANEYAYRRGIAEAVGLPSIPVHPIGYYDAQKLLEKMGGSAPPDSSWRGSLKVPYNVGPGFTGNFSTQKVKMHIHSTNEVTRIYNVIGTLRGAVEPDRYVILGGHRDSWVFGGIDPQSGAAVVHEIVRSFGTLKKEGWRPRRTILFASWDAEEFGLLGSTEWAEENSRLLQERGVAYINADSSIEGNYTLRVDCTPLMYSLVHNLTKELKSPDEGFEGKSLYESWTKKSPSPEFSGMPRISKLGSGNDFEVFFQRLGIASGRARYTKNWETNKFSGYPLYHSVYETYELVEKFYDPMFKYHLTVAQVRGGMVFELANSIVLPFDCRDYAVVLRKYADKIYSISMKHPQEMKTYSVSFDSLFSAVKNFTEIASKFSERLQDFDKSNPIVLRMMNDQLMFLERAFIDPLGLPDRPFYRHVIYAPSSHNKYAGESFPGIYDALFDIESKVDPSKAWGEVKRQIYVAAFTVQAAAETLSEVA
test_description: PSMA competitive inhibition assay (NAAG substrate, LNCaP cell lysate)
Type: biochemical
recorded_conditions: Table 4; read-out: PSMA Ki
Exercise: for every item that follows, state its recorded pKi.
Answers are plain numbers, as −log10 of the molar value.

Recorded results for 4 compounds are shown here.
1. N#C[C@@H]1CCCN1C(=O)CNC(=O)c1ccnc2ccc(OCCCNC(=O)CCc3cn(CCCC[C@H](NC(=O)CN4CCN(CC(=O)O)CCN(CC(=O)O)CCN(CC(=O)O)CC4)C(=O)NCCCCCC(=O)N(CCCC[C@H](NC(=O)N[C@@H](CCC(=O)O)C(=O)O)C(=O)O)Cc4ccc(Br)cc4)nn3)cc12 [SB-FAP-06] :: 9.03
2. N#C[C@@H]1CCCN1C(=O)CNC(=O)c1ccnc2ccc(OCCCNC(=O)CCc3cn(CCOCCOCCOCCC(=O)N[C@@H](CCCCNC(=O)CCC(C(=O)O)N4CCN(CC(=O)O)CCN(CC(=O)O)CCN(CC(=O)O)CC4)C(=O)NCCCCC(=O)N(CCCC[C@H](NC(=O)N[C@@H](CCC(=O)O)C(=O)O)C(=O)O)Cc4ccc(Br)cc4)nn3)cc12 (some centres unmarked) [SB-FAP-03] :: 8.54
3. N#C[C@@H]1CCCN1C(=O)CNC(=O)c1ccnc2ccc(OCCCNC(=O)CCc3cn(CCOCCOCCOCCC(=O)N[C@@H](CCCCNC(=O)CN4CCN(CC(=O)O)CCN(CC(=O)O)CCN(CC(=O)O)CC4)C(=O)NCCCCC(=O)N(CCCC[C@H](NC(=O)N[C@@H](CCC(=O)O)C(=O)O)C(=O)O)Cc4ccc(Br)cc4)nn3)cc12 [SB-FAP-01] :: 7.78
4. N#C[C@@H]1CCCN1C(=O)CNC(=O)c1ccnc2ccc(OCCCNC(=O)CCc3cn(CCOCCOCCOCCC(=O)N[C@@H](CCCCNC(=O)CN4CCN(CC(=O)O)CCN(CC(=O)O)CC4)C(=O)NCCCCC(=O)N(CCCC[C@H](NC(=O)N[C@@H](CCC(=O)O)C(=O)O)C(=O)O)Cc4ccc(Br)cc4)nn3)cc12 [SB-FAP-02] :: 7.74

Ask: If you can, please state the reported pKi value of N#CC1CCCN1C(=O)CNC(=O)c1ccnc2ccc(OCCCNC(=O)CCc3cn(CC[C@H](NC(=O)CN4CCN(CC(=O)O)CCN(CC(=O)O)CC4)C(=O)NCCCCCC(=O)NCCCC[C@H](NC(=O)N[C@@H](CC(=O)O)C(=O)O)C(=O)O)nn3)cc12 (some centres unmarked) [SRI-07-42] .
Reply: 6.03

====

System: U87 tumor
test_description: PET imaging and tissue biodistribution in U87 tumor-bearing mice
Assay type: in vivo, mouse
recorded_conditions: untitled table; radiolabel and time not given; in %ID/g
Exercise: for every item that follows, state its recorded Biodistribution: Stomach.
Give bare numbers.

Answer for every listed entry: what is its Biodistribution: Stomach? The entries follow.
1. N#C[C@@H]1CCCN1C(=O)CNC(=O)c1ccnc2ccc(OCCCNC(=O)CCOCCOCCOCCNC(=O)C(CCNC(=O)c3ccc(F)nc3)NC(=O)CN3CCN(CC(=O)O)CCN(CC(=O)O)CCN(CC(=O)O)CC3)cc12 (some centres unmarked)
2. N#C[C@@H]1CCCN1C(=O)CNC(=O)c1ccnc2ccc(OCCCN3CC4CN(C(=O)C(CCNC(=O)c5ccc(F)nc5)NC(=O)CN5CCN(CC(=O)O)CCN(CC(=O)O)CCN(CC(=O)O)CC5)CC4C3)cc12 (some centres unmarked)
3. N#C[C@@H]1CCCN1C(=O)CNC(=O)c1ccnc2ccc(OCCCNC(=O)C(CCNC(=O)c3ccc(F)nc3)NC(=O)CN3CCN(CC(=O)O)CCN(CC(=O)O)CCN(CC(=O)O)CC3)cc12 (some centres unmarked)

Reply:
1: 1.83; 2: 1.85; 3: 1.42

Answer for every listed entry: what is its Biodistribution: Stomach? The entries follow.
1. N#CC1CCCN1C(=O)CNC(=O)c1ccnc2ccc(OCCCNC(=O)CCc3cn(CCCC[C@H](NC(=O)c4ccc(F)nc4)C(=O)NCCNC(=O)CN4CCN(CC(=O)O)CCN(CC(=O)O)CCN(CC(=O)O)CC4)nn3)cc12 (some centres unmarked)
2. N#CC1CCCN1C(=O)CNC(=O)c1ccnc2ccc(OCCCNC(=O)CCc3cn(CC[C@H](NC(=O)c4ccc(F)nc4)C(=O)NCCNC(=O)CN4CCN(CC(=O)O)CCN(CC(=O)O)CCN(CC(=O)O)CC4)nn3)cc12 (some centres unmarked)

Reply:
2.17
3.73
